target: full-length human PIKFYVE (GST-PIKFYVE) (Homo sapiens, UniProt Q9Y2I7, L932S/Q1183K/Q995L/S1033A/S696N/T998S); construct: A full-length human PIKFYVE [1-2098 (end) amino acids; purchased Carna Biosciences; host or cells: baculovirus expression system; assay: PIKfyve biochemical assay (ADP-Glo Kinase assay, Carna Biosciences); conditions: ADP-Glo with full-length PIKfyve; read-out: PIKfyve IC50
Sequence (Q9Y2I7 whole entry S696N/L932S/Q995L/T998S/S1033A/Q1183K): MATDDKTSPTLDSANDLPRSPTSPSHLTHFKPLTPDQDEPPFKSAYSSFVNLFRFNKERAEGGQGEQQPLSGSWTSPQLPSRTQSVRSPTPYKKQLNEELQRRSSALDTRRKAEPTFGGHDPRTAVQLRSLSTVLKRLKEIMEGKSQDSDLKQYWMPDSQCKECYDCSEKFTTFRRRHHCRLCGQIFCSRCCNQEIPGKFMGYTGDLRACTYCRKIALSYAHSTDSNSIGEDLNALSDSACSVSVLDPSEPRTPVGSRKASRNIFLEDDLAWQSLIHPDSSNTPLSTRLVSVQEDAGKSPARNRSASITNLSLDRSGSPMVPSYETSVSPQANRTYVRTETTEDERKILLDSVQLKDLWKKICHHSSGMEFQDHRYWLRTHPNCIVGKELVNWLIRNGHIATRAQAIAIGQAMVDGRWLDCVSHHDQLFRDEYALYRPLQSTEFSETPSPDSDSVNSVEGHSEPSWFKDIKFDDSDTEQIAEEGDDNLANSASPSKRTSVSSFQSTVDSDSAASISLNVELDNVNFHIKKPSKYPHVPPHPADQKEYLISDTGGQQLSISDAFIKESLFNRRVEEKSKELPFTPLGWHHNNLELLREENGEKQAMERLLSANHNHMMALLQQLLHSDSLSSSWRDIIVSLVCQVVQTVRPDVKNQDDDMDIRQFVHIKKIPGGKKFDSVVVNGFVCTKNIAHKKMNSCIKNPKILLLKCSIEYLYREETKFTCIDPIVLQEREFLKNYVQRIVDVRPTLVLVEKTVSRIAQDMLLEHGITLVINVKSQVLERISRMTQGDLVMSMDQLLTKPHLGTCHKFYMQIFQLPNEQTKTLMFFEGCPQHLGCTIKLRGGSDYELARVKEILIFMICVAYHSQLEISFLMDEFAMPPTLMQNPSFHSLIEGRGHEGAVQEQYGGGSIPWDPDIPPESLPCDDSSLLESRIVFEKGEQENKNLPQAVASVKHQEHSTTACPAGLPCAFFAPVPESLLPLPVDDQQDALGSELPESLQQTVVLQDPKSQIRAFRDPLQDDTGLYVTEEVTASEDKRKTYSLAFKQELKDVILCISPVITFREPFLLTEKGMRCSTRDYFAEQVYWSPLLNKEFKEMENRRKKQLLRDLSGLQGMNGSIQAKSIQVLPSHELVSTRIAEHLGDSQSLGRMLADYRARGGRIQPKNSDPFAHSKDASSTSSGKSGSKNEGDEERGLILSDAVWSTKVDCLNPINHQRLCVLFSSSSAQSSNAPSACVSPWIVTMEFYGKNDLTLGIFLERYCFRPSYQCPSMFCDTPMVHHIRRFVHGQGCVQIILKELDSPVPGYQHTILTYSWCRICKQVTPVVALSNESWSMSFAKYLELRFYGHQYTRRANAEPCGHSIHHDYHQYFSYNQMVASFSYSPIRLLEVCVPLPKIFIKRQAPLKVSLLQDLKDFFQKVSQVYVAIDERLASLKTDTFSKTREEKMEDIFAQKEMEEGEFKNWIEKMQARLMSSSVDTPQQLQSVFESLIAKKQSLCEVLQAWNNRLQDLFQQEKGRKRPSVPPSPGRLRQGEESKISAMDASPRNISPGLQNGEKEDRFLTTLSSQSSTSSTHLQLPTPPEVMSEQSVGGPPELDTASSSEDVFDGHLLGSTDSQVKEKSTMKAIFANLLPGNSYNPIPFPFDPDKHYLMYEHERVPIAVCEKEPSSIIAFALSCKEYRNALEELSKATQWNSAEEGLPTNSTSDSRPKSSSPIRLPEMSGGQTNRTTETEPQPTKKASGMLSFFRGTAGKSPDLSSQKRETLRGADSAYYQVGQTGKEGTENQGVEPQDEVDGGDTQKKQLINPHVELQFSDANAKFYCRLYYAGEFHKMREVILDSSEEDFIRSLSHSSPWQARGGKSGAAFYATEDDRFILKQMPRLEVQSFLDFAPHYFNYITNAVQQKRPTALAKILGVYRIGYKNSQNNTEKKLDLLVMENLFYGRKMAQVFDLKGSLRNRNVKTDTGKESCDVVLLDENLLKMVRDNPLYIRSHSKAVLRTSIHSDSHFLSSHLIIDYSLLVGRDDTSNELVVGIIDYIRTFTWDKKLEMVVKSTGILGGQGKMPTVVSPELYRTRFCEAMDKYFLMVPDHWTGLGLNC
MEASUREMENT NAME: IC50
Numeric answer plus unit only.

Request: Can you look up the measured IC50 of `CN(C)c1cc(N2CCOCC2)n2nc(-c3ccncc3)cc2n1` for me?
Response: 2010 nM

Required: IC50, one value per compound below.
1. Cn1c(-c2ccncc2)nc2c(N3CCOCC3)ncnc21 [drawing 253]
2. Cc1cccc(/C=N/Nc2nc(N3CCOCC3)c3nc(-c4ccncc4)n(C)c3n2)c1 [drawing 252]
3. Cc1cccc(/C=N/Nc2cc(N3CC4CC3CO4)n3nc(-c4ccncc4)cc3n2)c1 (stereo not shown)

Response:
1. 640 nM
2. 4.9 nM
3. 12 nM

---

biological target: full-length human PIKFYVE (GST-PIKFYVE) (Homo sapiens, UniProt Q9Y2I7, L932S/Q1183K/Q995L/S1033A/S696N/T998S); construct: A full-length human PIKFYVE [1-2098 (end) amino acids; purchased Carna Biosciences; host or cells: baculovirus expression system; assay: PIKfyve biochemical assay (ADP-Glo Kinase assay, Carna Biosciences); conditions: ADP-Glo, full-length human PIKFYVE; read-out: hPIKfyve IC50
Provide the reported IC50 of each item.

Example cases with answers are listed next.
Request: Can you look up the measured IC50 of `c1cncc(Oc2nc(N3CCOCC3)nc3c2CCN3c2cccnc2)c1` for me?
Response: 10 to 100 nM

Request: Can you look up the measured IC50 of `c1ccc(N2CCc3c(Cc4ccccn4)nc(N4CCOCC4)nc32)cc1` for me?
Response: 10 to 100 nM

Request: Can you look up the measured IC50 of `c1ccc(N2CCc3c(-c4ccncc4)nc(N4CCOCC4)nc32)cc1` for me?
Response: < 10 nM

Request: Can you look up the measured IC50 of `c1ccc(Cc2nc(N3CCOCC3)nc3c2CCN3c2cccnc2)nc1` for me?
Response: 100 to 1000 nM

Required: IC50, one value per compound below.
1. c1cncc(-c2nc(N3CCOCC3)nc3c2CCN3c2ccc3c(c2)OCCO3)c1
2. c1ccc(N2CCc3c(OCc4ccncc4)nc(N4CCOCC4)nc32)cc1

Response:
10 to 100 nM
10 to 100 nM

---

target: full-length human PIKFYVE (GST-PIKFYVE) (Homo sapiens, UniProt Q9Y2I7, L932S/Q1183K/Q995L/S1033A/S696N/T998S); construct: A full-length human PIKFYVE [1-2098 (end) amino acids; purchased Carna Biosciences; host or cells: baculovirus expression system; test: PIKfyve biochemical assay (ADP-Glo Kinase assay, Carna Biosciences); details: ADP-Glo, full-length human PIKFYVE; read-out: hPIKfyve IC50
pIC50: −log10 of the molar value.
MEASUREMENT NAME: pIC50

Example cases with answers are listed next.
Request: Can you look up the measured pIC50 of CN1CCCC(COc2nc(N3CCOCC3)nc3c2CCN3c2ccccc2)C1 (centres unmarked) for me?
Response: 5.00 to 6.00

Request: Can you look up the measured pIC50 of `CN1CCC(COc2nc(N3CCOCC3)nc3c2CCN3c2cccnc2)CC1` for me?
Response: 6.00 to 7.00

Request: Can you look up the measured pIC50 of `c1ccc(N2CCc3c(Oc4cccnc4)nc(N4CCOCC4)nc32)cc1` for me?
Response: > 8.00

Required: pIC50, one value per compound below.
1. c1ccc(N2CCc3c(OCC4CCCO4)nc(N4CCOCC4)nc32)cc1 (centres unmarked)
2. c1ccc(N2CCc3c(NC4COC4)nc(N4CCOCC4)nc32)cc1

Response:
7.00 to 8.00
5.00 to 6.00
